All values here come from paper PMC8903829.

# assay-notes: Bioanalytical assessment of plasma and brain concentrations after 6 Hz assay
# Assay type: in vivo, mouse
# condition: Scn8a^N1768D/+, mouse, plasma, po, 2 mg/kg, Scn8a mice, 2 mg/kg PO every 12 hr, day 7, 2 hr after 13th dose; read-out: Mean [Plasma]
measured-attribute: concentration at 2 hr
Just so you know, I need the unit written after the number.

Name the recorded concentration at 2 hr for Cc1cc(S(=O)(=O)Nc2cscn2)c(F)cc1N(C)[C@H]1CCN(Cc2ccccc2)C1 [NBI-921352] .
2.95 nM

###

# assay-notes: Bioanalytical assessment of plasma and brain concentrations after 6 Hz assay
# Format: in vivo, mouse
# condition: Scn8a^N1768D/+ (heterozygous gain-of-function knock-in line), mouse, brain, po, 30 mg/kg, Scn8a mice, 30 mg/kg PO single dose, after assay 2 hr post dose; read-out: Mean [Brain]
measured-attribute: concentration at 2 hr (nM)
Your answer is read as nM, so omit the unit and give the number.

Name the recorded concentration at 2 hr for Cc1cc(S(=O)(=O)Nc2cscn2)c(F)cc1N(C)[C@H]1CCN(Cc2ccccc2)C1 .
96.6

###

# assay-notes: Bioanalytical assessment of plasma and brain concentrations after mouse DC-MES assay
# Format: in vivo
# condition: mouse, brain, po, 200 mg/kg, WT mice, 200 mg/kg PO single dose, 2 h; read-out: Mean [Brain]
measured-attribute: concentration at 2 h

Name the recorded concentration at 2 h for Cc1cc(S(=O)(=O)Nc2cscn2)c(F)cc1N(C)[C@H]1CCN(Cc2ccccc2)C1 .
3.88 µM

###

# assay-notes: Bioanalytical assessment of plasma and brain concentrations after mouse DC-MES assay
# Format: in vivo
# condition: mouse, plasma, po, 200 mg/kg, WT mice, 200 mg/kg PO single dose, 2 h; read-out: Mean [Plasma]
measured-attribute: concentration at 2 h (µM)
Your answer is read as µM, so omit the unit and give the number.

Name the recorded concentration at 2 h for Cc1cc(S(=O)(=O)Nc2cscn2)c(F)cc1N(C)[C@H]1CCN(Cc2ccccc2)C1 .
34.7

###

# assay-notes: Bioanalytical assessment of plasma and brain concentrations after rat DC-MES assay
# Format: in vivo
# condition: rat, plasma, oral, 20 mg/kg, Study18058, 20 mg/kg, Rat DC-MES; read-out: Mean [Palsma]
measured-attribute: concentration at 2 h (µM)
Your answer is read as µM, so omit the unit and give the number.

Name the recorded concentration at 2 h for NC(=O)N1c2ccccc2C=Cc2ccccc21 [carbamazepine, Carbamazepine, reference compound] .
11.3

###

# assay-notes: Bioanalytical assessment of plasma and brain concentrations after rat DC-MES assay
# Format: in vivo
# condition: rat, plasma, po, 1 mg/kg, sheet Figure 5G, 5H, 5I (rats), 1 mg/kg PO every 12 hr, day 7, 2 hr after 13th dose; read-out: Mean [Plasma]
measured-attribute: concentration at 2 h
Just so you know, I need the unit written after the number.

Name the recorded concentration at 2 h for Cc1cc(S(=O)(=O)Nc2cscn2)c(F)cc1N(C)[C@H]1CCN(Cc2ccccc2)C1 [NBI-921352] .
33.9 nM

###

# assay-notes: Bioanalytical assessment of plasma and brain concentrations after 6 Hz assay
# Type: in vivo, mouse
# condition: Scn8a^N1768D/+, mouse, in vivo, 10 mg/kg, Study18042, 10 mg/kg, SCN8A mouse 6HZ; read-out: Mean [Palsma]
# Experimental: Approximately 0.5 mL of blood was collected from each mouse at the end of the assay via cardiac puncture under deep anesthesia. The blood samples were collected in a syringe and transferred to tubes containing EDTA. Blood was stored at 4 °C until centrifuged within 30 min of collection. […] Extraction of plasma samples was carried out by protein precipitation using acetonitrile. […] The samples were analyzed by UHPLC-ESI-MS/MS as described below. […]
measured-attribute: concentration at 2 h (µM)
Your answer is read as µM, so omit the unit and give the number.

Name the recorded concentration at 2 h for COC[C@@H](NC(C)=O)C(=O)NCc1ccccc1 [lacosamide, Lacosamide, reference compound] .
14.4
